target: T1, human collagen type I, acid soluble, extracted from placenta (Sigma C7774) (human, UniProt P02452 162-1218; P08123 80-1119); test: dried collagen assay; note: test concentration or dose not given here
T1 construct: tissue extract, gelled and dried in wells; also called dried human collagen; h-Collagen
T1 sequence (P02452 162-1218 limits assumed, chain 1 of 2): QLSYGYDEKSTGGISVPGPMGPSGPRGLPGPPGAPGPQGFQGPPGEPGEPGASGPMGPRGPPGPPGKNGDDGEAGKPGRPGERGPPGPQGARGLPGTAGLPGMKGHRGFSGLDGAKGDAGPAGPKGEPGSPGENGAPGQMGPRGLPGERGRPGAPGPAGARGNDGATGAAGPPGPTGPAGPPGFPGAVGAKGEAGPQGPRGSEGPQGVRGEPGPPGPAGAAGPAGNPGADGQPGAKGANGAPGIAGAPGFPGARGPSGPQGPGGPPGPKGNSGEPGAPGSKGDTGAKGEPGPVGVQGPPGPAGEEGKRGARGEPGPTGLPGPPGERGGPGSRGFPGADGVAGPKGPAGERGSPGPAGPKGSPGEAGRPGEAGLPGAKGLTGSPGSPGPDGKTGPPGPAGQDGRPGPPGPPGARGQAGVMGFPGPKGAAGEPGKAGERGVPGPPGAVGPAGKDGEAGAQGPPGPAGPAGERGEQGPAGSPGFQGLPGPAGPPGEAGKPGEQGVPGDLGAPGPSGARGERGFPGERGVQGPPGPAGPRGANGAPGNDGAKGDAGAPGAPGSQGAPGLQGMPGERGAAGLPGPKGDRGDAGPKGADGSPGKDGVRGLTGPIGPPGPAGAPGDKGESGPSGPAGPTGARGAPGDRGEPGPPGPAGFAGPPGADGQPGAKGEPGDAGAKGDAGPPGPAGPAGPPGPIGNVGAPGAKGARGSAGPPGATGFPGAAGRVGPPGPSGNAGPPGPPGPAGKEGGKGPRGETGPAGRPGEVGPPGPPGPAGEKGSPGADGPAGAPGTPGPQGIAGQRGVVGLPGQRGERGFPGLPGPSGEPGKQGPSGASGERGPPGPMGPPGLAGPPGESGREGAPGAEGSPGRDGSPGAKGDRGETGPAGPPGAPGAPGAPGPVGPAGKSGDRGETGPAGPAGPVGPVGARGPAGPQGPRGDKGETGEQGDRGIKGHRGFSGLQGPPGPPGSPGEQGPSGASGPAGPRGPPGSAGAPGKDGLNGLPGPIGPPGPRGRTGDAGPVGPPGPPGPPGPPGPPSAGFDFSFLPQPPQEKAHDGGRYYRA
T1 sequence (P08123 80-1119 limits assumed, chain 2 of 2): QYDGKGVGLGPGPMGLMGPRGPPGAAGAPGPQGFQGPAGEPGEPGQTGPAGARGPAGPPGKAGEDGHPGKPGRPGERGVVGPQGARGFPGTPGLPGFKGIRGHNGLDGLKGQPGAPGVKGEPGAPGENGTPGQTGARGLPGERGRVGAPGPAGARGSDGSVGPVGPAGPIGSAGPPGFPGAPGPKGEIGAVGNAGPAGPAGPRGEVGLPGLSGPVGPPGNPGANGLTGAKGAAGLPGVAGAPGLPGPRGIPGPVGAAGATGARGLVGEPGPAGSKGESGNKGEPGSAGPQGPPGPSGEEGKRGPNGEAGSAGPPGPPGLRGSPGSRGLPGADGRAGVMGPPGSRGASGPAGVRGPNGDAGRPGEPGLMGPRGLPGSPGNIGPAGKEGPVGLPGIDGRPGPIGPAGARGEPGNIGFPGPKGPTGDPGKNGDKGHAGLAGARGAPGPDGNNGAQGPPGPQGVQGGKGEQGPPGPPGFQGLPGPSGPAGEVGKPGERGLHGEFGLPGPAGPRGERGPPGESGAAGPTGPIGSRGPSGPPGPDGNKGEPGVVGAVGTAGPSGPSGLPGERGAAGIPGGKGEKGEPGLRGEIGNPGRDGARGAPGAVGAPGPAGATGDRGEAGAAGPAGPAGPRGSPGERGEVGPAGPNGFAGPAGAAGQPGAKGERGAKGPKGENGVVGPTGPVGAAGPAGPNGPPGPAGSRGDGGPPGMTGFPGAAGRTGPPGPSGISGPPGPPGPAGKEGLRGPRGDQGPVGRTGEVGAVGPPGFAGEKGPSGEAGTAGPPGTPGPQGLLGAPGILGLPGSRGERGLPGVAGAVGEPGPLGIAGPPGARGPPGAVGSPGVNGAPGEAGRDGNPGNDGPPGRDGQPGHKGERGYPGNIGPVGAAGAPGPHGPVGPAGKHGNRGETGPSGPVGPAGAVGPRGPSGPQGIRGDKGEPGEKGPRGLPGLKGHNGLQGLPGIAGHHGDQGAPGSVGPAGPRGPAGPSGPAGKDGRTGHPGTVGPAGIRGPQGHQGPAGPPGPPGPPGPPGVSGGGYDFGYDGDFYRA
Bridge positions count the residues as written; N and C are the ends. Square brackets hold non-standard residues; d marks the D form. Ends that are not written are not given here.

# binder, units_text, % bound
records = [
    ("TWACGWTTTGWDNCRWI (disulfide 4-14 (inferred), cyclic, disulfide) [SEQ ID NO 90]", "%", 34),
    ("QWTCSGDE[dY]TWHCNYE (disulfide 4-13 (inferred); not fully specified (N-terminus); printed as QWTCSGDEyTWHCNYE, cyclic, disulfide) [SEQ ID NO 171]", "%", 13),
    ("GWNCYEYDSQWICDHL (disulfide 4-13 (inferred), cyclic, disulfide) [SEQ ID NO 44]", "%", 28),
]
